assayedTarget: P2X7 (Homo sapiens)
Sequence (Q99572 whole entry): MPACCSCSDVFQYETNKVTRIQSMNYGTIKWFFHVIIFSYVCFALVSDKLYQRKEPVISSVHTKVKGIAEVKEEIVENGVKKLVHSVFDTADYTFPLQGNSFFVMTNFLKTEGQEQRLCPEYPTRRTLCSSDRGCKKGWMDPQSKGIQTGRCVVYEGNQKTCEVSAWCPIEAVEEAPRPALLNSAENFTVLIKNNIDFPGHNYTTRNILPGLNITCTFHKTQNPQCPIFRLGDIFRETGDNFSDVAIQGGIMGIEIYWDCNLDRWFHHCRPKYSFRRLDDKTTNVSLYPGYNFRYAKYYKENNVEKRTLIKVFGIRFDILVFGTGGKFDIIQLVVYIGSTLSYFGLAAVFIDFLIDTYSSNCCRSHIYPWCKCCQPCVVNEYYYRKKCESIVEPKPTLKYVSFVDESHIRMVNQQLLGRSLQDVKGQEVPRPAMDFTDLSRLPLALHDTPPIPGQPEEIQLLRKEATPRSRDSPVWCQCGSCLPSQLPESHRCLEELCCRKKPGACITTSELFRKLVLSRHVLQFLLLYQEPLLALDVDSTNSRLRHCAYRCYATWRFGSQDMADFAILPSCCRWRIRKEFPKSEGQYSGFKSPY
assayProtocol: Ca2+ flux (FLIPR) in 1321N1 cells expressing recombinant human P2X7 channel
Format: cell-based
Set-up: expressed in transfected cells; host or cells: 1321N1 cells
assayConditions: 250 μM BzATP
pIC50: −log10 of the molar value.
valueType: pIC50

INSERT INTO results (molecule, valueobserved) VALUES
  ('O=C(c1cccc(C(F)(F)F)c1Cl)N1CCn2c(C3CC3)nnc2[C@H]1c1ccccc1', 6.23),
  ('CC(C)(C)c1nnc2n1CCN(C(=O)c1cccc(C(F)(F)F)c1Cl)[C@@H]2c1ccccc1', 7.95),
  ('CC(O)c1nnc2n1CCN(C(=O)c1cccc(C(F)(F)F)c1Cl)C2c1ccccc1 (racemic)', 7.25),
  ('Cc1nnc2n1CCN(C(=O)c1cccc(C(F)(F)F)c1Cl)C2c1ccc(F)cc1 (racemic)', 7.56);

1: C[C@H]1Cn2c(nnc2-c2cccc(F)c2)CN1C(=O)c1ccc(F)c(Cl)c1Cl
2: O=C(c1cccc(C(F)(F)F)c1Cl)N1CCn2c(-c3ccco3)nnc2[C@@H]1c1ccccc1
3: O=C(c1cccc(Cl)c1Cl)N1CCn2c(nnc2C(F)(F)F)C1c1ccccc1 (racemic)
Rank descending by pIC50. Rank the items, then write their labels in that order.
2, 3, 1
(2: 8.60, 3: 7.92, 1: 5.01)

I: O=C(c1cccc(Cl)c1Cl)N1CCn2c(C(F)F)nnc2[C@H]1c1ccccc1
II: Cc1nnc2n1CCN(C(=O)c1cccc(C(F)(F)F)c1Cl)[C@@H]2c1ccccn1
Hi! Which is lower in terms of pIC50, the first one I or the second one II ? Your choice should be expressed through its label.
II

I: O=C(c1cccc(C(F)(F)F)c1Cl)N1CCn2c(C3CCC3)nnc2[C@H]1c1ccccc1
II: CC1CN(C(=O)c2cccc(Cl)c2Cl)Cc2nnc(-c3ccccn3)n21 (stereo not shown)
From the recorded data, which exceeds the other in pIC50: I or II ? Your choice should be expressed through its label.
I
(I: 8.09, II: 4.89)

Reference source for all entries: patent US12338243B2
